# maps each entry to its growth
- Tested on: SW-620 colon
- procedure-text: NCI-60 one-dose screen, 48 h (100 = growth as untreated, 0 = no growth, -100 = all killed)
- measurement-parameters: 10 µM unless noted
Compounds without any hit were thinned out: in the full panel of roughly 83,000, 20% have a hit. Where a SMILES comes first, the peptide text is derived from it. [ ]: non-standard residue; d: D form. ξ: configuration not given here. ξD = NC(CC(=O)O)C(=O)O
Write it as a number; the unit % goes unstated.

Field: example entries. Status: answers known.
Form field growth, entry CC(=O)c1c(O)c(C)c(O)c2c1OC1=CC(=O)C(C(C)=O)C(=O)C12C (stereo unspecified) : 74.7

Form field growth, entry `COc1c(C)c2c(c(O)c1C/C=C(\C)CCC(=O)O)C(=O)OC2` : 21.7

Form field growth, entry `CN(C)CC(C)(CN(C)C)C(=O)/C=C/c1c(Cl)cccc1Cl` : 4.63

Form field growth, entry `Oc1ccc2c(c1)CCc1ccccc1-2` : 103

Form field growth, entry NCC(=O)NC(CC(=O)O)C(=O)O (stereo unspecified) (H-Gly-[ξD]-OH) : 98.9

Form field growth, entry `O=C1/C(=C/c2ccccc2)CCC/C1=C\c1ccccc1` : 22

Form field growth, entry `CC1(C)CCCC2=C1C(=O)N(SC(Cl)(Cl)Cl)C2=O` : 88

Form field growth, entry `N#C/C(=N\Nc1ccc(Cl)cc1)C(=O)C1CC1` : 63.1

Form field growth, entry `COC(=O)c1ccc(=O)c2nc3/c(=C/O)c(O)cc(=O)c3[nH]c12` : 29.5

Form field growth, entry CCCCCCCCCCCC1N=C(N)N=C(N)N1c1cccc(Br)c1 (stereo unspecified) : -93.9

Now look at this one.
Form field growth, entry COc1ccc2c(c1OC)OCC(CN(C)C)C2=O (stereo unspecified) : -78.3
